These entries and their values trace back to PubChem BioAssay (Tox21).

Test: qHTS RealTime-Glo MT Cell Viability Assay in HEK293 cells - 32 hour (AID 1224868); also: nearly all actives have a fitted effect of over 50% in size; also: potency is read from the fitted curve at half-maximal effect
Conditions: RealTime-Glo luminescence; series mostly up to 76.8 µM
Results filed as inconclusive are left out. Activity calls are given as the source filed them. Calls follow the shape of the dose curve; as a rule, active = well fitted cell-killing curve with a large enough effect in the repeat runs; inconclusive = weak or mixed curves, or effect the other way; inactive = flat fitted curve, though single readings scatter.

compound	Potency
C=CC(=O)[O][Sn]([CH2]CCC)([CH2]CCC)[CH2]CCC	0.389 µM (active)
CC(Cc1ccccc1)N(C)Cc1ccco1 (configuration not stated)	inactive
CC(C)Br	inactive
CC(C)=CC1C(C(=O)OC(C#N)c2cccc(Oc3ccccc3)c2)C1(C)C (configuration not stated)	inactive
Cc1cc(C2CC2)nc(Nc2ccccc2)n1	24.5 µM (active)
CC(=O)[O-].CC(=O)[O-].O.O.[Zn+2]	inactive
CC(C)NCC(O)c1ccccc1Cl (configuration not stated)	inactive
O=S(=O)(NS(=O)(=O)C(F)(F)F)C(F)(F)F	1.94 µM (active)
CCOP(=O)(Sc1ccccc1)Sc1ccccc1	inactive
Nc1nc(N)nc(Cl)n1	inactive
CCN1CCC2(CC1)COc1cc3c(cc12)N(C(=O)c1ccc(-c2ccc(-c4nnc(C)o4)cc2C)cc1)CC3	11.3 µM (active)
C=CCBr	inactive
FC(F)C(F)(F)OCC(Cn1cncn1)c1ccc(Cl)cc1Cl (configuration not stated)	21.7 µM (active)
CC(Cl)CCl (configuration not stated)	inactive
Cc1c([N+](=O)[O-])c(C)c([N+](=O)[O-])c(C(C)(C)C)c1[N+](=O)[O-]	inactive
OCC(Br)CBr (configuration not stated)	inactive
Cc1cccc(Cc2cnc[nH]2)c1C	inactive
CCCCC(CC)COC(=O)OOC(C)(C)C (configuration not stated)	inactive
CCOP(=S)(OCC)Oc1cc(C)nc(N(CC)CC)n1	inactive
O=S(=O)(O)F	inactive
CCN(CC)CCc1c[nH]c2ccccc12	inactive
CC(=O)[O-].CC(=O)[O-].[Co+2]	inactive
CCC(C)Br (configuration not stated)	inactive
CCOC(=O)Cc1ccccc1	inactive
O=[N+]([O-])c1cccc2cccc([N+](=O)[O-])c12	inactive
N#CSCc1ccccc1	inactive
CC(=O)C(Cl)C(=O)N(C)C (configuration not stated)	inactive
O=c1[nH]c2cc(Cl)ccc2n1C1CCNCC1	inactive
ClSC(Cl)(Cl)Cl	inactive
O=[N+]([O-])c1cc(C(F)(F)F)c(Cl)c([N+](=O)[O-])c1Nc1ncc(C(F)(F)F)cc1Cl	1.74 µM (active)
CCCCCCCc1ccc(O)cc1	19.5 µM (active)
O=C(O)[C@H](O)[C@@H](O)C(=O)O	inactive
C#CC1(O)CCCCC1	inactive
CCNc1nc(NC(C)C(C)C)nc(SC)n1 (configuration not stated)	inactive
Oc1ccc2[nH]cc(CCCCN3CC=C(c4ccccc4)CC3)c2c1	23.9 µM (active)
CC1=C2C[C@H]3[C@@H](CC=C4C[C@@H](O)CC[C@@]43C)[C@@H]2CC[C@]12O[C@@H]1C[C@H](C)CN[C@H]1[C@H]2C	16.9 µM (active)
c1ccc2c(c1)cc1ccc3cccc4ccc2c1c34	inactive
CCCCC(CC)COC(=O)c1ccccc1C(=O)OCC(CC)CCCC (configuration not stated)	inactive
Cc1ccc2cc3c(ccc4ccccc43)c3c2c1CC3	inactive
CC[C@H](C)[C@H]1O[C@]2(C=C[C@@H]1C)C[C@@H]1C[C@@H](C/C=C(\C)[C@@H](O[C@H]3C[C@H](OC)[C@@H](O[C@H]4C[C@H](OC)[C@@H](NC)[C@H](C)O4)[C@H](C)O3)[C@@H](C)/C=C/C=C3\CO[C@@H]4[C@H](O)C(C)=C[C@@H](C(=O)O1)[C@]34O)O2	4.9 µM (active)
CC(=O)[O][Sn]([c]1ccccc1)([c]1ccccc1)[c]1ccccc1	0.0389 µM (active)
O=NN(CCO)CCO	inactive
Cc1ccc(C)c2ccccc12	inactive
CCNS(=O)(=O)C(F)(F)C(F)(F)C(F)(F)C(F)(F)C(F)(F)C(F)(F)C(F)(F)C(F)(F)F	inactive
C=Cc1cccc(CCl)c1	inactive
C=CC(=C)C	inactive
Cc1cnc2c(C(=O)O)c(Cl)ccc2c1	inactive
CCC[CH2][Sn]([CH2]CCC)([O]C(C)=O)[O]C(C)=O	0.0783 µM (active)
O=P(Cl)(Cl)Cl	inactive
c1csc(-c2ccc(-c3cccs3)s2)c1	inactive
CCn1cc[n+](C)c1 (tested in a mixture with another compound)	inactive
CC(Cc1ccc(O)cc1)NCC(O)c1cc(O)cc(O)c1 (configuration not stated)	inactive

---

Assay: A CellTox Green Cytotoxicity Assay to monitor cytotoxicity in HepG2 cells - 32 hour (AID 1224883); also: nearly all actives have a fitted effect of over 50% in size
Settings: CellTox Green fluorescence; series mostly up to 76.8 µM
Inconclusive results are not listed. Activity calls are given as the source filed them. Calls come from the whole dose curve; as a rule, active = well fitted activation curve with a large enough effect in the repeat runs; inconclusive = weak or mixed curves; inactive = flat fitted curve, though single readings scatter.
Outcomes: yes (active), no (inactive)

> print(dat)
                                    compound  assigned.class
 1  CCOC(=O)CCN(SN(C)C(=O)Oc1cccc2c1OC(C)(C)C2)C(C)C              no
 2         Clc1ccc(C2(Cn3cncn3)OCCO2)c(Cl)c1              no
 3                          Nc1nc(N)nc(Cl)n1              no
 4                                 C1=CCC=C1              no
 5                COc1c2c(cc3c1OCO3)CCN(C)C2              no
 6  CC(C)=CC1C(C(=O)OC(C#N)c2cccc(Oc3ccccc3)c2)C1(C)C (configuration not stated)              no
 7  CCNc1nc(NC(C)C(C)C)nc(SC)n1 (configuration not stated)              no
 8  C[C@]12CC[C@H]3[C@@H](CCC4=CC(=O)CC[C@@H]43)[C@@H]1CC[C@@H]2OC(=O)CCc1ccco1              no
 9                                      CCCN              no
10  CC1(C)[C@H](/C=C2\CCSC2=O)[C@@H]1C(=O)OCc1coc(Cc2ccccc2)c1              no
11  Oc1ccc2[nH]cc(CCCCN3CC=C(c4ccccc4)CC3)c2c1             yes
12  N#Cc1ccc(N(CC(N)=O)CC(F)(F)F)cc1C(F)(F)F              no

---

Test: qHTS assay to identify small molecule agonists of the NFkB signaling pathway - cell viability counter screen (AID 1159515); also: nearly all actives have a fitted effect of over 55% in size
Settings: NFkB-bla ME-180 viability, CellTiter-Glo luminescence, 5 h; series mostly up to 61 µM
Source text: National Center for Advancing Translational Sciences [NCATS] NIH Chemical Genomics Center [NCGC] U.S. Environmental Protection Agency [EPA] National Institutes of Environmental Health Sciences [NIEHS] National Toxicology Program [NTP] U.S. Food and Drug Administration [FDA] Transcription factors and their stimulated target gene expression play pivotal roles across many cellular processes including responses to environmental stimuli. […]
Records with an inconclusive call do not appear. The source made the active and inactive calls. Calls come from the whole dose curve.
Possible outcomes: active, inactive

molecule	assigned-class
CC(=O)[O-].CC(=O)[O-].CC(=O)[O-].[Cr+3]	inactive
CC[C@H](C)[C@H]1O[C@]2(C=C[C@@H]1C)C[C@@H]1C[C@@H](C/C=C(\C)[C@@H](O[C@H]3C[C@H](OC)[C@@H](O[C@H]4C[C@H](OC)[C@@H](NC)[C@H](C)O4)[C@H](C)O3)[C@@H](C)/C=C/C=C3\CO[C@@H]4[C@H](O)C(C)=C[C@@H](C(=O)O1)[C@]34O)O2	active
COc1ccc2c(c1OC)C(=O)O[C@@H]2[C@H]1c2cc3c(cc2CCN1C)OCO3	inactive
COCCC#N	inactive
CN1CCc2cc(Cl)c(O)cc2[C@H]2c3ccccc3CC[C@@H]21	inactive
Fc1ccc(C(OCCN2CCN(CCCc3ccccc3)CC2)c2ccc(F)cc2)cc1	active
CCC[CH2][Sn]([CH2]CCC)([CH2]CCC)[O][Sn]([CH2]CCC)([CH2]CCC)[CH2]CCC	active
CCOC(=O)CCN(SN(C)C(=O)Oc1cccc2c1OC(C)(C)C2)C(C)C	inactive
C=C(C)C(=O)[O][Sn]([CH2]CCC)([CH2]CCC)[CH2]CCC	active
CCN(CC)C(=S)S	active
CSC(C)(C)/C=N/O	inactive
O=S1OCC2C(CO1)C1(Cl)C(Cl)=C(Cl)C2(Cl)C1(Cl)Cl (configuration not stated)	active
O=[N+]([O-])c1ccc(Cl)c(Cl)c1Cl	inactive
COc1cnc(OC)n2nc(NS(=O)(=O)c3c(OCC(F)F)cccc3C(F)(F)F)nc12	inactive
CC#C[C@]1(O)CC[C@H]2[C@@H]3C[C@H](C)C4=CC(=O)CC[C@]4(C)[C@H]3CC[C@@]21C	inactive
CCC(C)Br (configuration not stated)	inactive
CNC(C)(C)Cc1ccccc1	inactive
CN1C2CCC(C)(C)C1CC(OC(=O)C(O)(c1cccs1)c1cccs1)C2 (configuration not stated)	inactive
CCCCCCCCCCCCCCn1cc[n+](C)c1	inactive
O=c1[nH]c(Cl)c(Cl)cc1Cl	inactive
CN(C)C(=S)SSC(=S)N(C)C	active
CCCCC(CC)COC(=O)c1ccccc1C(=O)OCC(CC)CCCC (configuration not stated)	inactive
CCN(CC)CCN1C(=O)CN=C(c2ccccc2F)c2cc(Cl)ccc21	inactive
C#CCC1=C(C)C(OC(=O)C2C(C=C(C)C)C2(C)C)CC1=O (configuration not stated)	inactive
CC1(C)C(C=C(Cl)Cl)C1C(=O)OC(C#N)c1ccc(F)c(Oc2ccccc2)c1 (configuration not stated)	inactive
CCOP(=O)(Sc1ccccc1)Sc1ccccc1	inactive
CSC1=N[C@@](C)(c2ccccc2)C(=O)N1Nc1ccccc1	inactive
Nc1ccccc1-c1ccccc1	inactive
CCCCn1cc[n+](C)c1.[Cl][Fe-]([Cl])([Cl])[Cl]	inactive
CC(Cc1ccc(O)cc1)NCC(O)c1cc(O)cc(O)c1 (configuration not stated)	inactive
Cc1nn(-c2cc(NS(C)(=O)=O)c(Cl)cc2Cl)c(=O)n1C(F)F	inactive
COC(=O)/C=C(\C)OP(=O)(OC)OC	inactive
CC(=O)[O-].CC(=O)[O-].O.O.[Zn+2]	inactive
[O]=[Cr][O][Cr]=[O]	inactive
CCCCC/C=C\C/C=C\C/C=C\C/C=C\CCCC(=O)NCC(=O)O	inactive
Oc1ccc([C@H]2CNCc3c2ccc(O)c3O)cc1O	inactive
CCCCCCC[CH2][Sn]([Cl])([Cl])[CH2]CCCCCCC	inactive
Cc1cc(C2CC2)nc(Nc2ccccc2)n1	inactive
ClC1=C(Cl)[C@]2(Cl)[C@@H]3[C@H]4C[C@H]([C@@H]5O[C@H]45)[C@@H]3[C@@]1(Cl)C2(Cl)Cl	inactive
N#CC(C#N)=NNc1cccc(Cl)c1	inactive
c1cc[n+]2c(c1)-c1cccc[n+]1CC2	inactive
Cc1ccccc1OP(=O)(Oc1ccccc1C)Oc1ccccc1C	inactive
Cc1ccc2cc3c(ccc4ccccc43)c3c2c1CC3	inactive
CC[N+]1(CC)CCC(OC(=O)C(O)(c2ccccc2)c2ccccc2)C1 (configuration not stated)	inactive
ClC(Cl)C(Cl)(Cl)Cl	inactive
CCC[CH2][Sn]([CH2]CCC)([O]C(C)=O)[O]C(C)=O	active
C=CCBr	inactive
